Values were extracted from the supplement of paper PMC8728848.

Test target: Neu5Gc(a2-6)GalNAc
Assay comment: glycan array binding signal (z-score within array); higher = stronger binding
Condition summary: glycan notation: IUPAC condensed, linker removed
This is one part of a sample in which the strongest signals are shown more often than they occur.
Measured endpoint: glycan array binding signal (z-score)
Write no unit; give the number alone.

// field: glycan array binding signal (z-score); key: RfpC (Mycobacterium tuberculosum), O07747 (protein) MHHHHHHSSGRENLYFQGHMASKSAMAAGLVTASMSLSTAVAHAGPSPNWDAVAQCESGGNWAANTGNGKYGGLQFKPATWAAFGGVGNPAAASREQQIAVANRVLAEQGLDAWPTCGAASGLPIALWSKPAQGIKGS ; value = 1.8
